# MEASUREMENT_TARGET: F508del (Homo sapiens, UniProt P13569, DEL508-508)
# Construct: expressed in transfected cells
# Sequence (P13569 with tags, fused parts or gaps DEL508-508): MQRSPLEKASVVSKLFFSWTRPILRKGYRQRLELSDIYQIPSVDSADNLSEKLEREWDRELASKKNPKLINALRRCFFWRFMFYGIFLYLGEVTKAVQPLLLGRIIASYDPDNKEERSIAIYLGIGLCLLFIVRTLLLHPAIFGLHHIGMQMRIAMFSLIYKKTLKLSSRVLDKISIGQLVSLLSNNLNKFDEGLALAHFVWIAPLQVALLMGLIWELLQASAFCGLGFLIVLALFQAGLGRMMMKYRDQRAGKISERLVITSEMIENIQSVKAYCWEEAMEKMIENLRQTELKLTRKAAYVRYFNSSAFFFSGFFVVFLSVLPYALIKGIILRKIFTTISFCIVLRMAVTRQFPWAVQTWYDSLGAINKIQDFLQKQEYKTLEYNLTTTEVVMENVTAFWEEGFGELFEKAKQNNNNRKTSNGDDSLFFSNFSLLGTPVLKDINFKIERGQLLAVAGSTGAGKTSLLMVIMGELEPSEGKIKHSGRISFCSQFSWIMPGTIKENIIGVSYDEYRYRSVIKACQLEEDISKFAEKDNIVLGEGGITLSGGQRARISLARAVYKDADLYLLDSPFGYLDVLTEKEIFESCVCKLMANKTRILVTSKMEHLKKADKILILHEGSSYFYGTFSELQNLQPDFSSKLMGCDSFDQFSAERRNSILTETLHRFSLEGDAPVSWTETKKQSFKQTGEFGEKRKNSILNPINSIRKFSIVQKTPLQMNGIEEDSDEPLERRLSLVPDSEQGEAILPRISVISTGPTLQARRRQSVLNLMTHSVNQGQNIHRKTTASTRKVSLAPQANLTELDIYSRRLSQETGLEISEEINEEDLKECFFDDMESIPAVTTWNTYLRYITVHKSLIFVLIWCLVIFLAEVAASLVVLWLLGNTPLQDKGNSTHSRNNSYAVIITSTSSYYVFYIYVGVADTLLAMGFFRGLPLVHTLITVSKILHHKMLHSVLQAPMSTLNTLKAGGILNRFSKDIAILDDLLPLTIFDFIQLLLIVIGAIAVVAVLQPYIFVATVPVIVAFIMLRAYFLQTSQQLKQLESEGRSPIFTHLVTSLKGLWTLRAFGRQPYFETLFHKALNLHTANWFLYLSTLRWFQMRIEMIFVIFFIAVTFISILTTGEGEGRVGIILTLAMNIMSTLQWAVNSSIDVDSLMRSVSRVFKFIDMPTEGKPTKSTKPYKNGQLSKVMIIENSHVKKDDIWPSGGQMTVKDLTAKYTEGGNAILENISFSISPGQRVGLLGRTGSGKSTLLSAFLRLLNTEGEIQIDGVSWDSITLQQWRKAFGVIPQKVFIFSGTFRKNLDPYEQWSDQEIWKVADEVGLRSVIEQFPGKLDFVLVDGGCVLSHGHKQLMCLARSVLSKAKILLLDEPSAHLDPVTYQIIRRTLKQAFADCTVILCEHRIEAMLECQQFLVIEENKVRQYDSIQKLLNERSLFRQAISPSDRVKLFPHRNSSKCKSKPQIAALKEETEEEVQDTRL
# PROTOCOL: Protocol 2: FRET membrane potential optical assay (VIPR), identification of correction compounds
# Type: cell-based
# MEASUREMENT_CONDITIONS: Table 3; compounds of Table 1 as modulators of CFTR activity; protocol not stated
MEASUREMENT_TYPE: EC30

Example entries and their recorded answers appear below.
>  <COMPOUND>
CC(C)COc1cc(F)cc(-c2ccc(C(=O)NS(=O)(=O)c3cccc(N)n3)c(N3CCCCC3C)n2)c1 (stereo not shown) [Compound 425]

>  <MEASUREMENT_TARGET>
F508del (Homo sapiens, UniProt P13569, DEL508-508)

>  <MEASUREMENT_TYPE>
EC30

>  <RESULT>
+++ (“+++” means <3 uM)

$$$$
>  <COMPOUND>
Cc1cc(C)c(CN2CCc3ccccc3CC2C(=O)NS(=O)(=O)c2cc[nH]n2)c(C)c1 (stereo not shown) [Compound 628]

>  <MEASUREMENT_TARGET>
F508del (Homo sapiens, UniProt P13569, DEL508-508)

>  <MEASUREMENT_TYPE>
EC30

>  <RESULT>
+++ (“+++” means <3 uM)

$$$$
>  <COMPOUND>
COc1cccc(S(=O)(=O)NC(=O)C2c3ccccc3CN2Cc2c(C)cc(C)cc2C)c1 (stereo not shown) [Compound 16]

>  <MEASUREMENT_TARGET>
F508del (Homo sapiens, UniProt P13569, DEL508-508)

>  <MEASUREMENT_TYPE>
EC30

>  <RESULT>
+++ (“+++” means <3 uM)

$$$$
>  <COMPOUND>
Cc1cccc(C)c1Cn1nc(C(C)(C)C)cc1C(=O)NS(=O)(=O)c1ccsc1 [Compound 603]

>  <MEASUREMENT_TARGET>
F508del (Homo sapiens, UniProt P13569, DEL508-508)

>  <MEASUREMENT_TYPE>
EC30

>  <RESULT>
+++ (“+++” means <3 uM)

$$$$

Request: Identify the reported EC30 for the following entry. Cc1ccc(Oc2nc(C(C)(C)C)ccc2C(=O)NS(=O)(=O)c2cccc(N)c2)c(C)c1 [Compound 251]
Response: +++ (“+++” means <3 uM)
